- TESTED_SYSTEM: Acetylcholinesterase (Musca domestica, UniProt Q7YWJ9)
- Sequence (Q7YWJ9 whole entry): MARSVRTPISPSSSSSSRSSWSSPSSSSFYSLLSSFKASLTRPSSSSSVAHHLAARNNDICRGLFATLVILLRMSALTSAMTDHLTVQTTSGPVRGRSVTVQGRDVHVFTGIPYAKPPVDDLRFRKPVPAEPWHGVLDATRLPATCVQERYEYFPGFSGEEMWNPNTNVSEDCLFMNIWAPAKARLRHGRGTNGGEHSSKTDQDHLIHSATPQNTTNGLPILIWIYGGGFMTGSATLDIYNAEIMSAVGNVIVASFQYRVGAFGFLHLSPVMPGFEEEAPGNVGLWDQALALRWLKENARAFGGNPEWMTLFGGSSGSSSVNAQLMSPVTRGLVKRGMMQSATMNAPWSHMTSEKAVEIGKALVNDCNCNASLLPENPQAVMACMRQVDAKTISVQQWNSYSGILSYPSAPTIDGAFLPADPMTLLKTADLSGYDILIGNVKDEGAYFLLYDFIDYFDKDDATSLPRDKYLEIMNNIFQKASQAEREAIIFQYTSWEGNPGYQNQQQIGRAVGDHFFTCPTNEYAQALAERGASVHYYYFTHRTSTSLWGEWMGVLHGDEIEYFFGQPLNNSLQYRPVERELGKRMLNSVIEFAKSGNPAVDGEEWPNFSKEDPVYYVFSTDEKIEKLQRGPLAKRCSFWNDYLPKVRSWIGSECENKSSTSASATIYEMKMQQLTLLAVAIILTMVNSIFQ
Decide using IC50 alone. Strictly below 5000 µM: TRUE. Equal to or above 5000 µM: FALSE.

Solved cases below.
{"MOLECULE": "C1=C(c2cccnc2)NCC1 [DIHYDRONICOTYRINE]", "TESTED_SYSTEM": "Acetylcholinesterase (Musca domestica, UniProt Q7YWJ9)", "CATEGORY_LABEL": "TRUE"}
{"MOLECULE": "CCN(CC)Cc1ccncc1", "TESTED_SYSTEM": "Acetylcholinesterase (Musca domestica, UniProt Q7YWJ9)", "CATEGORY_LABEL": "FALSE"}
{"MOLECULE": "CCCN(CCC)Cc1cccnc1", "TESTED_SYSTEM": "Acetylcholinesterase (Musca domestica, UniProt Q7YWJ9)", "CATEGORY_LABEL": "TRUE"}

In plain terms, does CN1CCC[C@H]1c1cccnc1 (racemic) [NICOTINE] come in under 5000 µM for IC50?
TRUE

Try CNCc1cccnc1 next.
FALSE

Try CCN(CC)Cc1cccnc1 next.
TRUE

* * *

Quick list: pKa per entry.
- METHOD_NOTES: Disocciation constant, pKa of the compound at 25 degC
- Format: physicochemical
Could you respond with only the numeric value?

Answered cases to consult:
{"MOLECULE": "c1cncc([C@@H]2CCCN2)c1 [NORNICOTINE]", "pKa": 9}
{"MOLECULE": "c1cncc(C2=NCCC2)c1 [MYOSMINE]", "pKa": 5.5}
{"MOLECULE": "C1=C(c2cccnc2)NCC1 [DIHYDRONICOTYRINE]", "pKa": 7.4}
{"MOLECULE": "CN1CCC[C@H]1c1cccnc1 [NICOTINE]", "pKa": 7.9}
{"MOLECULE": "Cn1cccc1-c1cccnc1 [NICOTYRINE]", "pKa": 4.7}
{"MOLECULE": "c1cncc([C@@H]2CCCCN2)c1 [ANABASINE]", "pKa": 8.7}

Shift focus to the following entry.
Return reported pKa; argument: CN1C(=O)CC[C@H]1c1cccnc1 [COTININE]
4.5

* * *

- TESTED_SYSTEM: Nicotinic acetylcholine receptor alpha 5 subunit (Musca domestica)
- Sequence (A9XFY4 whole entry): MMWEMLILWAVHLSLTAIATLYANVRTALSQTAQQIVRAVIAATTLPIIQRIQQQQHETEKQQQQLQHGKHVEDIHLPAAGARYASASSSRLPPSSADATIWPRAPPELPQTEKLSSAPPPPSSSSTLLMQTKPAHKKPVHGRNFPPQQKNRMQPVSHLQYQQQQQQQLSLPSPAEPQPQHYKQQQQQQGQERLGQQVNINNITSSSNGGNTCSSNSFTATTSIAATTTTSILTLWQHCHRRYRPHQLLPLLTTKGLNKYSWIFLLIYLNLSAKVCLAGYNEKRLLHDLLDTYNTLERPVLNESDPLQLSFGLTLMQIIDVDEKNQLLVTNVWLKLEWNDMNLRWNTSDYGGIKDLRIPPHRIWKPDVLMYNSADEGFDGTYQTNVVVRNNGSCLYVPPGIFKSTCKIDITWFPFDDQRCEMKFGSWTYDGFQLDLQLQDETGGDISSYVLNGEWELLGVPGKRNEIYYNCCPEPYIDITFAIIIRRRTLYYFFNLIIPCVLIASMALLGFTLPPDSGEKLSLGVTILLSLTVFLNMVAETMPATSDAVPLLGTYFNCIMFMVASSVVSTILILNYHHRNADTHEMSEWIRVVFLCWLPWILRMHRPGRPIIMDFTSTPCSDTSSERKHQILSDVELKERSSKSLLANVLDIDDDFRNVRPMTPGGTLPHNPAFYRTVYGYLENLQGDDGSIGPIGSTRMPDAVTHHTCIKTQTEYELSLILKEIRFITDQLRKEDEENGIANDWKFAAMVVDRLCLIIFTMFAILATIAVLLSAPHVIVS
- METHOD_NOTES: Displacement of [3H]alpha-bungarotoxin from nAChR in Musca domestica (house fly) head membrane after 60 min by scintillation counting
Quick list: pKi per entry.
pKi here is simply -log10 of the concentration when that concentration is written in mol/L.

Answered cases to consult:
{"COMPOUND": "CCN(CC)Cc1cccnc1", "pKi": 3.35}
{"COMPOUND": "O=c1cccc2n1C[C@@H]1CNC[C@H]2C1", "pKi": 5.91}
{"COMPOUND": "CN(C)C1CSSC1", "pKi": 3.73}

Shift focus to the following entry.
Return reported pKi; argument: O=C1N(Cc2ccccc2)C2C[S+]3CCCC3C2N1Cc1ccccc1 (stereo unspecified)
5.56

* * *

- METHOD_NOTES: Disocciation constant, pKa of the compound at 37 degC
- Type: physicochemical
MEASUREMENT_KIND: pKa
Could you respond with only the numeric value?

Answered cases to consult:
{"MOLECULE": "CCCCN(CCCC)Cc1cccnc1", "pKa": 8.08}
{"MOLECULE": "CN1CCC[C@H]1c1cccnc1 [NICOTINE]", "pKa": 7.66}
{"MOLECULE": "CCCN(CCC)Cc1cccnc1", "pKa": 8.13}
{"MOLECULE": "c1cncc([C@@H]2CCCN2)c1 [NORNICOTINE]", "pKa": 8.76}

Return reported pKa; argument: CCN(CC)Cc1ccncc1
7.96

Try CCN(CC)Cc1cccnc1 next.
8.12

Try c1cncc([C@@H]2CCCCN2)c1 [ANABASINE] next.
8.48

Try c1cncc(CN2CCCC2)c1 [N-(3-PYRIDYLMETHYL)PYRROLIDINE] next.
8.11

Try CCCNCc1cccnc1 next.
8.38
